target.entity: GRK2 (Homo sapiens)
Sequence (P25098 whole entry): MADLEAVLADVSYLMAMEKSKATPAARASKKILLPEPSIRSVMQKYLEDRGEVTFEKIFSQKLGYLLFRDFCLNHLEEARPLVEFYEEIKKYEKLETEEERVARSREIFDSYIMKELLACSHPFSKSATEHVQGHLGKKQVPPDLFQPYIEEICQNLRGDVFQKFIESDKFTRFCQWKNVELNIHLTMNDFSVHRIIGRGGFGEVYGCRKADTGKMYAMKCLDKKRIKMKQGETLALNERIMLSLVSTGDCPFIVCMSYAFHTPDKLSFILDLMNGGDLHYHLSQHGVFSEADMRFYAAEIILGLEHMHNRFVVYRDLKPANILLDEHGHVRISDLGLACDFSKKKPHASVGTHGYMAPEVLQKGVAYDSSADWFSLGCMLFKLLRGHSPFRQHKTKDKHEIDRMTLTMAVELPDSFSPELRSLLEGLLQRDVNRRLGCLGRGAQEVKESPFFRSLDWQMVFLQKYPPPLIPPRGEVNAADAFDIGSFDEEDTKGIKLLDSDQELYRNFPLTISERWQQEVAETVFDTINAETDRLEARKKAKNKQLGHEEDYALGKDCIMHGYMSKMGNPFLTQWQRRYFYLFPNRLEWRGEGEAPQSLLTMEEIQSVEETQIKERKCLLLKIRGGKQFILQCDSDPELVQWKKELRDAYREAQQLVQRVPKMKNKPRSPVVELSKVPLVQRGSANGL
assay: GRK2 Degradation Assay and Western Blot in PAXF1657 cells
Format: cell-based
Set-up: endogenous in cells; host or cells: PAXF1657
condition.info: 3 uM, PAXF1657 EV, 24 hrs; read-out: % GRK2 degradation at 3 uM in PAXF1657 EV (24 hrs)
Tag: t if measured inhibition at 3 µM is not below 60%, f if it is.

{"compound": "Cn1c(CNc2cccc(C(=O)NCc3cccc(OCCCCCCn4cc(CCCCC(=O)Nc5cccc6c5CN(C5CCC(=O)NC5=O)C6=O)nn4)c3)c2)nnc1-c1ccncn1 (stereo not shown) [Compound D62]", "cat": "t"}
{"compound": "Cn1c(CNc2cccc(C(=O)NCc3cccc(OCCOCCOCCOCCC(=O)Nc4cccc5c4CN(C4CCC(=O)NC4=O)C5=O)c3)c2)nnc1-c1ccncn1 (stereo not shown) [Compound D107]", "cat": "f"}
{"compound": "Cn1c(CNc2cccc(C(=O)NCc3cccc(OCCCCCC(=O)NCCOCCOCCOCCC(=O)Nc4cccc5c4CN(C4CCC(=O)NC4=O)C5=O)c3)c2)nnc1-c1ccncn1 (stereo not shown) [Compound D113]", "cat": "f"}
{"compound": "Cn1c(CNc2cccc(C(=O)NCc3cc(OCCCCCCOCCOCCOCCCCCC(=O)Nc4cccc5c4CN(C4CCC(=O)NC4=O)C5=O)ccc3F)c2)nnc1-c1ccncn1 (stereo not shown) [Compound D66]", "cat": "t"}
{"compound": "Cc1ncsc1-c1ccc(CNC(=O)[C@@H]2C[C@@H](O)CN2C(=O)[C@@H](NC(=O)CCCCCOCCOCCOCCCCCCOc2cccc(CNC(=O)c3cccc(NCc4nnc(-c5ccncn5)n4C)c3)c2)C(C)(C)C)cc1 [Compound D99]", "cat": "f"}
{"compound": "Cn1c(CNc2cccc(C(=O)NCc3ccc(OCCCCCCOCCOCCOCCCCCC(=O)Nc4cccc5c4CN(C4CCC(=O)NC4=O)C5=O)cc3)c2)nnc1-c1ccncn1 (stereo not shown) [Compound D65]", "cat": "t"}
{"compound": "Cn1c(CNc2cccc(C(=O)NCc3cccc(OCCCCCCOCCOCCOCCCCCC(=O)Nc4cccc5c4CN(C4CCC(=O)NC4=O)C5)c3)c2)nnc1-c1ccncn1 (stereo not shown) [Compound D73]", "cat": "t"}
{"compound": "Cc1ncsc1-c1ccc(CNC(=O)[C@@H]2C[C@@H](O)CN2C(=O)[C@@H](NC(=O)CCCc2cn(CCCCCCCOc3cccc(CNC(=O)c4cccc(NCc5nnc(-c6ccncn6)n5C)c4)c3)nn2)C(C)(C)C)cc1 [Compound D83]", "cat": "f"}
{"compound": "CN[C@@H](C)C(=O)N[C@H](C(=O)N1CCC[C@H]1c1nc(C(=O)c2cccc(OCc3cn(CCCCCCOc4cccc(CNC(=O)c5cccc(NCc6nnc(-c7ccncn7)n6C)c5)c4)nn3)c2)cs1)C1CCCCC1 [Compound D102]", "cat": "t"}
{"compound": "Cc1ncsc1-c1ccc(CNC(=O)[C@@H]2C[C@@H](O)CN2C(=O)[C@@H](NC(=O)CCCCc2cn(CCCCCCCOc3cccc(CNC(=O)c4cccc(NCc5nnc(-c6ccncn6)n5C)c4)c3)nn2)C(C)(C)C)cc1 [Compound D82]", "cat": "f"}

* * *

Test system: PAXF1657 KO Clone #4
assay: 7-day cellular proliferation assay (CellTiter-Glo), PAXF1657 KO Clone #4
Format: cell-based
condition.info: proliferation, read-out: GeoMean IC50 (uM) PAXF1657 KO Clone #4
Counter-ions that a name gives are not always drawn.

{"molecule": "C[C@@H](NC(=O)c1cccc(NCc2nnc(-c3ccncn3)n2C)c1)c1cccc(OCCCCCOCCCOCC(=O)Nc2cccc3c2CN(C2CCC(=O)NC2=O)C3=O)c1 (stereo partly shown) [Compound D183]", "IC50": "> 30 µM"}
{"molecule": "Cc1ncsc1-c1ccc(CNC(=O)[C@@H]2C[C@@H](O)CN2C(=O)[C@@H](NC(=O)COCCCOCCCCCOc2ccc([C@H](C)NC(=O)c3cccc(NCc4nnc(-c5ccncn5)n4C)c3)cc2)C(C)(C)C)cc1 [Compound D151]", "IC50": "9.65 µM"}
{"molecule": "C[C@@H](NC(=O)c1cccc(NCc2nnc(-c3ccncn3)n2C)c1)c1cccc(OCCCCCOCCCOCC(=O)N2CCN(c3ccc4c(c3)CN(C3CCC(=O)NC3=O)C4=O)CC2)c1 (stereo partly shown) [Compound D181]", "IC50": "> 30 µM"}
{"molecule": "C[C@@H](NC(=O)c1cccc(NCc2nnc(-c3ccncn3)n2C)c1)c1cccc(OCCCCCCOCCN2CCN(c3ccc4c(c3)CN(C3CCC(=O)NC3=O)C4=O)CC2)c1 (stereo partly shown) [Compound D126]", "IC50": "> 30 µM"}
{"molecule": "Cc1ncsc1-c1ccc([C@H](C)NC(=O)[C@@H]2C[C@@H](O)CN2C(=O)[C@@H](NC(=O)COCCCOCCCCCOc2cccc([C@@H](C)NC(=O)c3cccc(NCc4nnc(-c5ccncn5)n4C)c3)c2)C(C)(C)C)cc1 [Compound D169]", "IC50": "8.15 µM"}
{"molecule": "C[C@@H](NC(=O)c1cccc(NCc2nnc(-c3ccncn3)n2C)c1)c1cccc(OCCCCCn2cc(CCCC(=O)Nc3cccc4c3CN(C3CCC(=O)NC3=O)C4=O)nn2)c1 (stereo partly shown) [Compound D157]", "IC50": "> 30 µM"}
{"molecule": "C[C@@H](NC(=O)c1cccc(NCc2nnc(-c3ccncn3)n2C)c1)c1cccc(OCCCCCOCCCOCCOc2cccc3c2CN(C2CCC(=O)NC2=O)C3=O)c1 (stereo partly shown) [Compound D198]", "IC50": "> 30 µM"}
{"molecule": "Cn1c(CNc2cccc(C(=O)NCc3ccc(OCCCCCOCCCOCC(=O)Nc4cccc5c4CN(C4CCC(=O)NC4=O)C5=O)cc3)c2)nnc1-c1ccncn1 (stereo not shown) [Compound D167]", "IC50": "> 30 µM"}
{"molecule": "Cc1ncsc1-c1ccc(CNC(=O)[C@@H]2C[C@@H](O)CN2C(=O)C(NC(=O)CCCCCOCCOCCOCCCCCCOc2ccc3c(c2)[C@H](NC(=O)c2cccc(NCc4nnc(-c5ccncn5)n4C)c2)CCO3)C(C)(C)C)cc1 (stereo partly shown) [Compound D186]", "IC50": "5.09 µM"}
{"molecule": "C[C@@H](NC(=O)c1cccc(NCc2nnc(-c3ccncn3)n2C)c1)c1cccc(OCCCN2CCN(c3ccc4c(c3)CN(C3CCC(=O)NC3=O)C4=O)CC2)c1 (stereo partly shown) [Compound D123, hydrochloride]", "IC50": "> 30 µM"}
{"molecule": "C[C@@H](NC(=O)c1cccc(NCc2nnc(-c3ccncn3)n2C)c1)c1ccc(OCC(=O)N2CCN(c3ccc4c(c3)CN(C3CCC(=O)NC3=O)C4=O)CC2)cc1 (stereo partly shown) [Compound D177]", "IC50": "> 30 µM"}
{"molecule": "Cc1ncsc1-c1ccc(CNC(=O)[C@@H]2C[C@@H](O)CN2C(=O)[C@@H](NC(=O)CCCCCOCCOCCOCCCCCCOc2cccc([C@@H](C)NC(=O)c3cccc(NCc4nnc(-c5ccncn5)n4C)c3)c2)C(C)(C)C)cc1 [Compound D162]", "IC50": "11.4 µM"}
{"molecule": "Cc1ncsc1-c1ccc(CNC(=O)[C@@H]2C[C@@H](O)CN2C(=O)[C@@H](NC(=O)COCCCOCCCCCOc2ccc(CNC(=O)c3cccc(NCc4nnc(-c5ccncn5)n4C)c3)cc2)C(C)(C)C)cc1 [Compound D168]", "IC50": "6.03 µM"}
{"molecule": "C[C@@H](NC(=O)c1cccc(NCc2nnc(-c3ccncn3)n2C)c1)c1cccc(OCCCCCCOCCOCCNc2cccc3c2CN(C2CCC(=O)NC2=O)C3=O)c1 (stereo partly shown) [Compound D143]", "IC50": "5.32 µM"}
{"molecule": "C[C@@H](NC(=O)c1cccc(NCc2nnc(-c3ccncn3)n2C)c1)c1ccc(OCCCCCCOCCOCCOCCCC(=O)Nc2cccc3c2CN(C2CCC(=O)NC2=O)C3=O)cc1 (stereo partly shown) [Compound D127]", "IC50": "> 30 µM"}
{"molecule": "C[C@@H](NC(=O)c1cccc(NCc2nnc(-c3ccncn3)n2C)c1)c1cccc(C(=O)N2CCC(CN3CCN(c4ccc5c(c4)CN(C4CCC(=O)NC4=O)C5=O)CC3)CC2)c1 (stereo partly shown) [Compound D122, hydrochloride]", "IC50": "> 30 µM"}
{"molecule": "C[C@@H](NC(=O)c1cccc(NCc2nnc(-c3ccncn3)n2C)c1)c1cccc(OCCCCCOCCCOCC(=O)N2CCN(c3cc4c(cc3F)C(=O)N(C3CCC(=O)NC3=O)C4=O)CC2)c1 (stereo partly shown) [Compound D180]", "IC50": "> 30 µM"}
{"molecule": "C[C@@H](NC(=O)c1cccc(NCc2nnc(-c3ccncn3)n2C)c1)c1cccc(OCCCCCCn2cc(CCCC(=O)Nc3cccc4c3CN(C3CCC(=O)NC3=O)C4=O)nn2)c1 (stereo partly shown) [Compound D165]", "IC50": "> 30 µM"}
{"molecule": "C[C@H](NC(=O)c1cccc(NCc2nnc(-c3ccncn3)n2C)c1)c1cccc(OCCCCCCOCCOCCOCCCC(=O)Nc2cccc3c2CN(C2CCC(=O)NC2=O)C3=O)c1 (stereo partly shown) [Compound D154]", "IC50": "> 30 µM"}
